Exercise: state measured pIC50 for each of the compounds provided.
Target: UniProt:O15379
Test: in vitro biochemical HDAC inhibition assay
Details: Table 2; read-out: IC50 HDAC3
# pIC50: negative log10 of molar concentration; output just the value

stdin: Hello, I am looking for reported pIC50 with UniProt:O15379 for `Nc1ccc(-c2cccs2)cc1NC(=O)c1ccc2nc(N3CCNCC3)cnc2c1` . Could you help?
stdout: 7.15

stdin: Hello, I am looking for reported pIC50 with UniProt:O15379 for `Nc1ccc(-c2ccccc2)cc1NC(=O)c1cnc2c(N3CCNCC3)c(C3CC3)ccc2c1` . Could you help?
stdout: 6.59

stdin: Hello, I am looking for reported pIC50 with UniProt:O15379 for `Nc1ccccc1NC(=O)c1ccc2nc(N3CCNCC3)ccc2c1` . Could you help?
stdout: 6.98

stdin: Hello, I am looking for reported pIC50 with UniProt:O15379 for `Nc1ccc(-c2cccs2)cc1NC(=O)c1cnc2c(C3CC3)c(N3CCNCC3)ccc2c1` . Could you help?
stdout: 7.00

stdin: Hello, I am looking for reported pIC50 with UniProt:O15379 for `Nc1ccc(-c2ccccc2)nc1NC(=O)c1cnc2cc(N3CCNCC3)ccc2c1` . Could you help?
stdout: 6.10

stdin: Hello, I am looking for reported pIC50 with UniProt:O15379 for `CN1CCN(CCn2ccc3cc(C(=O)Nc4cc(-c5ccccc5)ccc4N)ccc32)CC1` . Could you help?
stdout: 6.76

stdin: Hello, I am looking for reported pIC50 with UniProt:O15379 for `Nc1sc(-c2ccccc2)cc1NC(=O)c1cnc2cc(N3CCNCC3)ccc2c1` . Could you help?
stdout: 6.77

stdin: Hello, I am looking for reported pIC50 with UniProt:O15379 for `Nc1ccc(-c2cccs2)cc1NC(=O)c1ccc2nc(N3CCNCC3)ccc2c1` . Could you help?
stdout: 6.94

stdin: Hello, I am looking for reported pIC50 with UniProt:O15379 for `Nc1ccc(-c2ccccc2)cc1NC(=O)c1ccc2c(cnn2CCN2CCOCC2)c1` . Could you help?
stdout: 6.46

stdin: Hello, I am looking for reported pIC50 with UniProt:O15379 for `Nc1ccc(-c2ccccc2)cc1NC(=O)c1ccc2nn(CCN3CCOCC3)cc2c1` . Could you help?
stdout: 6.32

stdin: Hello, I am looking for reported pIC50 with UniProt:O15379 for `COCCNc1cc2ncc(C(=O)Nc3cc(-c4cccs4)ccc3N)cc2cc1C1CC1` . Could you help?
stdout: 5.81

stdin: Hello, I am looking for reported pIC50 with UniProt:O15379 for `Nc1ccc(-c2ccccc2)cc1NC(=O)c1cnc2c(C3CC3)c(N3CCNCC3)ccc2c1` . Could you help?
stdout: 6.79

stdin: Hello, I am looking for reported pIC50 with UniProt:O15379 for `Nc1ccc(-c2ccccc2)cc1NC(=O)c1ccc2c(c1)cc(C1CC1)n2CCN1CCOCC1` . Could you help?
stdout: 6.16

stdin: Hello, I am looking for reported pIC50 with UniProt:O15379 for `Nc1ccc(-c2ccccc2)cc1NC(=O)c1ccc2c(c1)c(C1CC1)cn2CCN1CCOCC1` . Could you help?
stdout: 5.72

stdin: Hello, I am looking for reported pIC50 with UniProt:O15379 for `Nc1ccc(-c2ccccc2)cc1NC(=O)c1cnc2c(ccn2CCN2CCOCC2)c1` . Could you help?
stdout: 6.43

* * *

Biological target: HDAC1 (Homo sapiens, UniProt Q13547)
Sequence (Q13547 whole entry): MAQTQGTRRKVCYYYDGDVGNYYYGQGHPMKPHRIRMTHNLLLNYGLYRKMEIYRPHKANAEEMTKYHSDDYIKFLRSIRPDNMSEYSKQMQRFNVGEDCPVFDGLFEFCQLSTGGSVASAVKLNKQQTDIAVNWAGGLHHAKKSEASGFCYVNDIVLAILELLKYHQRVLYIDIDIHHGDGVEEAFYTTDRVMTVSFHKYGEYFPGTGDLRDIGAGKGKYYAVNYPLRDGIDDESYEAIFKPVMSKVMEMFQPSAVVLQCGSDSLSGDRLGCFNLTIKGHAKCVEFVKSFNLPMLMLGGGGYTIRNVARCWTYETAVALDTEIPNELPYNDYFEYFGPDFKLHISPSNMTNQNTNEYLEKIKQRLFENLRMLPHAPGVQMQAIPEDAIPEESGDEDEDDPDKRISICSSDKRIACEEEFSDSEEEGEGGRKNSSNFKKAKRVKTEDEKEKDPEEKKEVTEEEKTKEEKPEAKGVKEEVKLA
Test: in vitro biochemical HDAC inhibition assay
Conditions: Table 4; read-out: IC50 HDAC1
assayEndpoint: pIC50
# pIC50: negative log10 of molar concentration; output just the value

stdin: Quick check: pIC50 of `CN1CCN(C(=O)N2CCC(C)(Nc3ncc(C(=O)Nc4cc(-c5cccs5)ccc4N)cn3)CC2)CC1` ?
stdout: 8.07

stdin: Quick check: pIC50 of `CC1(Nc2ncc(C(=O)Nc3cc(-c4cccs4)ccc3N)cn2)CCN(C(=O)N2CCCC2)CC1` ?
stdout: 7.99

stdin: Quick check: pIC50 of `Nc1ccc(-c2cccs2)cc1NC(=O)/C=C/c1ccc(N2CCNCC2)c(C2CC2)c1` ?
stdout: 7.85

stdin: Quick check: pIC50 of `Nc1ccc(-c2cccs2)cc1NC(=O)c1ccc(N2CCNCC2)cc1C1CC1` ?
stdout: 7.95

stdin: Quick check: pIC50 of `CN1CCN(c2ccc(C(=O)Nc3cc(-c4ccccc4)ccc3N)cc2C2CC2)CC1` ?
stdout: 7.07

stdin: Quick check: pIC50 of `CC1(Nc2ncc(C(=O)Nc3cc(-c4cccs4)ccc3N)cn2)CCN(C(=O)N2CCNCC2)CC1` ?
stdout: 8.14

stdin: Quick check: pIC50 of `Nc1ccc(-c2ccccc2)cc1NC(=O)/C=C/c1ccc(N2CCNCC2)c(C2CC2)c1` ?
stdout: 7.56

stdin: Quick check: pIC50 of `Nc1ccccc1NC(=O)c1ccc(N2CCNCC2)cc1C1CC1` ?
stdout: 5.85

stdin: Quick check: pIC50 of `CC1(Nc2ccc(C(=O)Nc3cc(-c4ccncc4)ccc3N)cc2)CCN(C(=O)N2CCOCC2)CC1` ?
stdout: 7.92

stdin: Quick check: pIC50 of `Nc1ccc(-c2cccs2)cc1NC(=O)c1cnc(NC2CCN(C(=O)N3CCOCC3)CC2)nc1` ?
stdout: 7.83

* * *

Assay: pharmacokinetics of Compound 001 in cynomolgus monkeys
Type: in vivo
Conditions: cynomolgus monkey, plasma; high dose (75 mg/kg once daily oral gavage, 5 days); read-out: minimum drug exposure for the entire dosing period
Method: B. Cynomolgus monkey were dosed once daily by oral gavage for 5 consecutive days at 0 mg/kg, 25 mg/kg, or 75 mg/kg per dose (FIG. 25B). Sampling as described in ‘A’. C. […] Points are the average of replicate animals, error bars are the standard deviation of replicate animals (FIG. 25C).
assayEndpoint: concentration at 5 days

stdin: Quick check: concentration at 5 days of Nc1ccc(-c2cccs2)cc1NC(=O)c1ccc2nc(N3CCNCC3)ccc2c1 [Compound 001] ?
stdout: ≥ 5 µM

* * *

Target: UniProt Q13547
Test: in vitro biochemical HDAC inhibition assay
Conditions: Table 2; read-out: IC50 HDAC1
assayEndpoint: pIC50
# pIC50: negative log10 of molar concentration; output just the value

stdin: Quick check: pIC50 of `CN1CCN(CCn2ccc3cc(C(=O)Nc4cc(-c5ccccc5)ccc4N)ccc32)CC1` ?
stdout: 8.15

stdin: Quick check: pIC50 of `Nc1ccc(-c2ccccc2)cc1NC(=O)c1ccc2nn(CCN3CCOCC3)cc2c1` ?
stdout: 7.96

stdin: Quick check: pIC50 of `Nc1ccc(-c2cccs2)cc1NC(=O)c1ccc2nc(N3CCNCC3)cnc2c1` ?
stdout: 8.15

stdin: Quick check: pIC50 of `COCCN(C)c1cc2ncc(C(=O)Nc3cc(-c4cccs4)ccc3N)cc2cc1C1CC1` ?
stdout: 6.03

stdin: Quick check: pIC50 of `Nc1ccc(-c2ccccc2)cc1NC(=O)c1cnc2c(C3CC3)c(N3CCNCC3)ccc2c1` ?
stdout: 8.11

stdin: Quick check: pIC50 of `Nc1ccc(-c2ccccc2)cc1NC(=O)c1cnc2c(N3CCNCC3)c(C3CC3)ccc2c1` ?
stdout: 6.99

stdin: Quick check: pIC50 of `Nc1ccc(-c2ccccc2)cc1NC(=O)c1ccc2c(c1)cc(C1CC1)n2CCN1CCOCC1` ?
stdout: 7.82

stdin: Quick check: pIC50 of `Nc1ccc(-c2ccccc2)nc1NC(=O)c1cnc2cc(N3CCNCC3)ccc2c1` ?
stdout: 5.71

stdin: Quick check: pIC50 of `Nc1cnc(-c2ccccc2)cc1NC(=O)c1cnc2cc(N3CCNCC3)ccc2c1` ?
stdout: 5.91

stdin: Quick check: pIC50 of `Nc1ccc(-c2ccccc2)cc1NC(=O)c1cnc2c(C3CC3)c(N3CCOCC3)ccc2c1` ?
stdout: 6.53

stdin: Quick check: pIC50 of `Nc1sc(-c2ccccc2)cc1NC(=O)c1cnc2cc(N3CCNCC3)ccc2c1` ?
stdout: 5.92

* * *

Exercise: state measured pIC50 for each of the molecules provided.
Biological target: HDAC1 (Homo sapiens)
Experiment: in vitro biochemical HDAC inhibition assay
Conditions: Table 3; read-out: IC50 HDAC1
# pIC50: negative log10 of molar concentration; output just the value

stdin: Quick check: pIC50 of `O=C(NO)c1cnc(NC2(c3ccccc3)CCN(C(=O)Nc3ccc(Cl)c(Cl)c3)CC2)nc1` ?
stdout: 6.96

stdin: Quick check: pIC50 of `CC(C)[C@@H](C(=O)N1CCC(C)(Nc2ncc(C(=O)NO)cn2)CC1)c1ccccc1` ?
stdout: 6.89

* * *

Target: HDAC3 (Homo sapiens, UniProt O15379)
Sequence (O15379 whole entry): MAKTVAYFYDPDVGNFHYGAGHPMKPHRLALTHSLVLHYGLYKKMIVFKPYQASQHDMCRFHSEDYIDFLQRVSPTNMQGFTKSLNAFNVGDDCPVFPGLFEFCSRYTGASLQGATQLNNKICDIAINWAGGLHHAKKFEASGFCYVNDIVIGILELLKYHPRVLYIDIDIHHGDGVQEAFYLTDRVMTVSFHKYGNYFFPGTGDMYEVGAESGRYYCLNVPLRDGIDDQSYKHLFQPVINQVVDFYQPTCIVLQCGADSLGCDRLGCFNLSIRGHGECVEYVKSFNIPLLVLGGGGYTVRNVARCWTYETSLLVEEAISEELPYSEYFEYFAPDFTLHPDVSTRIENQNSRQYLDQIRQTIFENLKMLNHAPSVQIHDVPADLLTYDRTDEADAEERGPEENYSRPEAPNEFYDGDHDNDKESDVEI
Sequence (Q9Y618 395-489 partner limits assumed): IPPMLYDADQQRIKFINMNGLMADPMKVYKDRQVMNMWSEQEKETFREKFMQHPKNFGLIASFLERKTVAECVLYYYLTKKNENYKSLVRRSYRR
Assay: in vitro biochemical HDAC inhibition assay
Details: pre-incubation time of 24 hours; FIG. 9A, 17B; read-out: IC50 against HDAC3
assayEndpoint: IC50 (µM)
A number alone suffices; assume µM.

stdin: Quick check: IC50 of `Nc1ccc(-c2cccs2)cc1NC(=O)c1ccc2nc(N3CCNCC3)ccc2c1` ?
stdout: 1.3

Just for reference, patent US20160137630A1 is where these values come from.
